- assay system: Src (Homo sapiens)
- Sequence (P12931 whole entry): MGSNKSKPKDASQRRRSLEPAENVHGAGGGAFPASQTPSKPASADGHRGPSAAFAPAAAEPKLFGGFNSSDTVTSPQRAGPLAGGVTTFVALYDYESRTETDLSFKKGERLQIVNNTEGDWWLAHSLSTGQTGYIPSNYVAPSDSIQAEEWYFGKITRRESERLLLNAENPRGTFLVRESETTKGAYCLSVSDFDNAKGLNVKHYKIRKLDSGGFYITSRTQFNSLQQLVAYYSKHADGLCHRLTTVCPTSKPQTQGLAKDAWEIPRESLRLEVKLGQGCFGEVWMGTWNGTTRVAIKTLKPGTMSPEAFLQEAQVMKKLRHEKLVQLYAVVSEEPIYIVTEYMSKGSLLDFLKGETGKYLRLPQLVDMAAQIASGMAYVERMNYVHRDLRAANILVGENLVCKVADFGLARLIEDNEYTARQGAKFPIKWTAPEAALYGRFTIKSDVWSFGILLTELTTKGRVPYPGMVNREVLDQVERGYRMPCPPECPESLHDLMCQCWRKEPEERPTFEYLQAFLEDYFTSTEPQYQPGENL
- method summary: Src kinase assay, IMAP fluorescence polarization
- Type: biochemical
pKi: −log10 of the molar value.
pKi values, listed per item
endpoint: pKi

INSERT INTO results (line_notation, result) VALUES
  ('CCN1CCC(N2C(=O)N(c3c(C)cccc3Cl)Cc3cncnc32)CC1', '< 4.00'),
  ('CCN1CCC(N2C(=O)N(c3c(C)cccc3F)Cc3cnc(N)nc32)CC1', '< 6.00'),
  ('Cc1cccc(F)c1N1Cc2cnc(N)cc2N(C2CCNCC2)C1=O', '< 6.00'),
  ('Cc1cccc(F)c1N1Cc2cncnc2N(C2CCNCC2)C1=O', '< 4.00'),
  ('Cc1cccc(F)c1N1Cc2cncnc2N(C2CCN(C)CC2)C1=O', '< 4.00'),
  ('Cc1cccc(Cl)c1N1Cc2cncnc2N(C2CCNCC2)C1=O', '< 4.00'),
  ('Cc1cccc(Cl)c1N1Cc2cncnc2N(C2CCN(C)CC2)C1=O', '< 4.00'),
  ('CCN1CCC(N2C(=O)N(c3c(C)cccc3F)Cc3cncnc32)CC1', '< 4.00'),
  ('Cc1cccc(F)c1N1Cc2cnc(N)nc2N(C2CCN(C)CC2)C1=O', '< 6.00');

FYI, the data here is from patent US12509457B2.
